# test-system: SHP2 catalytic domain (SHP2cat; residues 248-527) (Homo sapiens (Human))
# Sequence (Q06124 248-527): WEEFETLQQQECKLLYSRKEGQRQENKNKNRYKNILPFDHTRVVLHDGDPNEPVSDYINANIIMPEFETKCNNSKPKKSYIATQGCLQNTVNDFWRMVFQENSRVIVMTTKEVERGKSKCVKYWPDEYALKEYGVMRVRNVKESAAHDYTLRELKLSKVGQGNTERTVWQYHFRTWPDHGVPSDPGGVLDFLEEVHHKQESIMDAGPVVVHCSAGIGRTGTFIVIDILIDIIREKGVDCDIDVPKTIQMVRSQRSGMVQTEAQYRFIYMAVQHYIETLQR
# assay-name: DiFMUP fluorescence intensity phosphatase inhibition assay, SHP2cat
# Type: biochemical
# reported-conditions: catalytic domain, DiFMUP at Km; read-out: SHP2 IC50
IC50: recorded values
observation-type: IC50 (nM)

INSERT INTO results (smiles, units_symbol, numeric_readout) VALUES
  ('O=C(Nc1ccccc1)c1cc(-c2ccc(/C=C3\Sc4ccccc4C3=O)o2)ccc1O', 'nM', 730),
  ('N#Cc1cc(-c2ccc(/C=C3\Sc4ccccc4C3=O)o2)ccc1O', 'nM', 1400),
  ('Nc1ccc(NC(=O)c2cc(-c3ccc(/C=C4\Sc5ccccc5C4=O)o3)ccc2O)cc1', 'nM', 220),
  ('O=C1CCC/C1=C\c1ccc(-c2ccc(O)c(C(=O)Nc3ccccc3)c2)o1', 'nM', 1100);

###

# test-system: full-length SHP2-E76K oncogenic mutant (Homo sapiens (Human), UniProt Q06124, E76K)
# Sequence (Q06124 whole entry E76K): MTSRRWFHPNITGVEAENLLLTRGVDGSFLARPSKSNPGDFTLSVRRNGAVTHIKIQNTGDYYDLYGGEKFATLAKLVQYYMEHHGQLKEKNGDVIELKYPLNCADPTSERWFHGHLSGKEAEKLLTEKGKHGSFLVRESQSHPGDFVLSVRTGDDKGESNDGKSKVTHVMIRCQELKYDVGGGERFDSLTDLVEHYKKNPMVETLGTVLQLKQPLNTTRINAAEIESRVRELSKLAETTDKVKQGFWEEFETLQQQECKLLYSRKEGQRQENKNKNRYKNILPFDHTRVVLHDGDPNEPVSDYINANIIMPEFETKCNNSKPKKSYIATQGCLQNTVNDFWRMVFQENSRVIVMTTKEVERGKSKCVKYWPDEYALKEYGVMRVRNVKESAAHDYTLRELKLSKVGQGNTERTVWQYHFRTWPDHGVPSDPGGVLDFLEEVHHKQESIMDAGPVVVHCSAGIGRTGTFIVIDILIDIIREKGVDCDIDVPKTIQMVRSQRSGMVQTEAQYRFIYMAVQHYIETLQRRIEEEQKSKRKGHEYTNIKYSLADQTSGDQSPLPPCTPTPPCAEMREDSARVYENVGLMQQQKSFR
# assay-name: DiFMUP fluorescence intensity phosphatase inhibition assay, SHP2-E76K
# Assay type: biochemical
# reported-conditions: DiFMUP at Km (20 μM), 10-point dose-response; read-out: SHP2-E76K IC50
pIC50: −log10 of the molar value.
observation-type: pIC50

INSERT INTO results (compound, result) VALUES
  ('O=C1/C(=C/c2ccc(-c3ccc(O)c(C(=O)N4CCCCC4)c3)o2)Sc2ccccc21 [#12]', '4.70 to 6.00'),
  ('Nc1ccc(NC(=O)c2cc(-c3ccc(/C=C4\Sc5ccccc5C4=O)o3)ccc2O)cc1 [#01]', '≥ 6.00'),
  ('O=C1CCC/C1=C\c1ccc(-c2ccc(O)c(C(=O)Nc3ccccc3)c2)o1 [#03]', '4.70 to 6.00'),
  ('O=C(NNc1ccccc1)c1cc(-c2ccc(/C=C3\Sc4ccccc4C3=O)o2)ccc1O [#11]', '4.70 to 6.00'),
  ('N#Cc1cc(-c2ccc(/C=C3\Sc4ccccc4C3=O)o2)ccc1O [#05]', '4.70 to 6.00'),
  ('O=C1/C(=C/c2ccc(O)c(C(=O)O)c2)CC/C1=C\c1ccc(O)c(C(=O)O)c1 [#47]', '4.70 to 6.00'),
  ('CC(C)NC(=O)c1cc(-c2ccc(/C=C3\Oc4ccccc4C3=O)o2)ccc1O [#26]', '4.70 to 6.00'),
  ('C/C=C1\CC/C(=C\c2ccc(-c3ccc(O)c(C(=O)O)c3)o2)C1=O [#27]', '4.70 to 6.00'),
  ('O=C1/C(=C/c2ccc(-c3ccc(O)c(C(=O)O)c3)o2)CC/C1=C\c1ccc(-c2ccc(O)c(C(=O)O)c2)o1 [#44]', '≥ 6.00'),
  ('O=C(Nc1ccc2ccccc2n1)c1cccc(-c2ccc(/C=C3\Sc4ccccc4C3=O)o2)c1 [#38]', '4.00 to 4.70'),
  ('COc1cccc(NC(=O)c2cccc(-c3ccc(/C=C4\Sc5ccccc5C4=O)o3)c2)c1 [#33]', '4.70 to 6.00'),
  ('O=C(/C=C/c1ccc(-c2cccc(C(=O)O)c2)o1)/C=C/c1ccc(-c2cccc(C(=O)O)c2)o1 [#41]', '≥ 6.00'),
  ('O=C1CCC/C1=C\c1ccc(-c2ccc(O)c(C(=O)O)c2)o1 [#06]', '4.70 to 6.00'),
  ('O=C1/C(=C/c2ccc(-c3ccc(O)c(-c4nn[nH]n4)c3)o2)Sc2ccccc21 [#04]', '4.70 to 6.00'),
  ('O=C(Nc1ccccc1)c1cccc(-c2ccc(/C=C3\Sc4ccccc4C3=O)o2)c1 [#15]', '4.00 to 4.70'),
  ('O=C(NCc1ccccc1)c1cccc(-c2ccc(/C=C3\Sc4ccccc4C3=O)o2)c1 [#16]', '4.00 to 4.70'),
  ('O=C(O)c1cccc(-c2ccc(/C=C/C(=O)c3cccc(C(=O)/C=C/c4ccc(-c5cccc(C(=O)O)c5)o4)c3)o2)c1 [#45]', '4.70 to 6.00'),
  ('O=C(Nc1ccccc1)c1cc(F)cc(-c2ccc(/C=C3\Sc4ccccc4C3=O)o2)c1 [#29]', '4.70 to 6.00');

###

# test-system: full-length SHP2 wild-type (SHP2-WT) (Homo sapiens (Human), UniProt Q06124)
# Sequence (Q06124 whole entry, other chains not shown): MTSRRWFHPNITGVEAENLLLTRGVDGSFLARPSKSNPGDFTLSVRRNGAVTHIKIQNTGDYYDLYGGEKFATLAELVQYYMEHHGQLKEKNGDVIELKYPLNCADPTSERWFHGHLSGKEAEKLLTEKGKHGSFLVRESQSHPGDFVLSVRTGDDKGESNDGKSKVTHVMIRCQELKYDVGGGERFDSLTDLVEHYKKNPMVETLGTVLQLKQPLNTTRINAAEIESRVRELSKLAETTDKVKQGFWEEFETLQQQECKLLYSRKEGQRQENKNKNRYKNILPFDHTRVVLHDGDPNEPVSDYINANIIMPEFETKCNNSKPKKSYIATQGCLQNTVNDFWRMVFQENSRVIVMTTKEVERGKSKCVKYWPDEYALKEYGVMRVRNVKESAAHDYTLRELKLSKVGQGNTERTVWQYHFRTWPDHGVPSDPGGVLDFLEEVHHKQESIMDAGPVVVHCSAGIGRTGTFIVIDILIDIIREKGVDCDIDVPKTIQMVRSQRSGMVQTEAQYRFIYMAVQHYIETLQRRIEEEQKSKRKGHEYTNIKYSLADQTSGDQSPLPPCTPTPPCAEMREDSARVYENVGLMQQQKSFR
# assay-name: DiFMUP fluorescence intensity phosphatase inhibition assay, SHP2-WT activated with IRS-1 peptide
# reported-conditions: DiFMUP at Km (60 μM), IRS-1 peptide activated
observation-type: IC50

INSERT INTO results (smiles, result) VALUES
  ('O=C1CCC/C1=C\c1ccc(-c2ccc(O)c(C(=O)O)c2)o1', '20 to 100 µM'),
  ('O=C(O)c1cc(-c2ccc(/C=C3\Oc4ccccc4C3=O)o2)ccc1O', '1 to 20 µM'),
  ('N#Cc1cccc(-c2ccc(/C=C/C(=O)/C=C/c3ccc(-c4cccc(C#N)c4)o3)o2)c1', '1 to 20 µM');

###

Quick reference: IC50 of the listed items.
# test-system: full-length SHP2-E76K oncogenic mutant (Homo sapiens (Human), UniProt Q06124, E76K)
# assay-name: DiFMUP fluorescence intensity phosphatase inhibition assay, SHP2-E76K
# Type: biochemical
# reported-conditions: DiFMUP at Km (20 μM), 10-point dose-response; read-out: SHP2-E76K IC50
# From the text: To test the synthesized compounds for their potential to inhibit SHP2 activity, a fluorescence intensity-based assay using 6,8-difluoro-4-methylumbelliferyl phosphate (DiFMUP) as the substrate was adapted for three recombinant SHP2 constructs: 1) the SHP2 catalytic domain (SHP2cat; residues 248-527), 2) the full-length SHP2-E76K oncogenic mutant, and 3) the full-length SHP2 wild-type (SHP2-WT). The recombinant SHP2 proteins were expressed and purified. […]
observation-type: IC50

INSERT INTO results (molecule, test_system, observation_type, result) VALUES
  ('O=C(Nc1ccccc1)c1cc(-c2ccc(/C=C3\Sc4ccccc4C3=O)o2)ccc1F [#24]', 'full-length SHP2-E76K oncogenic mutant (Homo sapiens (Human), UniProt Q06124, E76K)', 'IC50', '≥ 100 µM'),
  ('O=C(/C=C/c1ccc(Br)o1)c1cccc(C(=O)/C=C/c2ccc(Br)o2)c1 [#48]', 'full-length SHP2-E76K oncogenic mutant (Homo sapiens (Human), UniProt Q06124, E76K)', 'IC50', '20 to 100 µM'),
  ('O=C(/C=C/c1ccc(-c2ccc(O)c(C(=O)O)c2)o1)c1cccc(C(=O)/C=C/c2ccc(-c3ccc(O)c(C(=O)O)c3)o2)c1 [#43]', 'full-length SHP2-E76K oncogenic mutant (Homo sapiens (Human), UniProt Q06124, E76K)', 'IC50', '≤ 1 µM'),
  ('O=C(O)c1cc(-c2ccc(/C=C3\Sc4ccccc4C3=O)o2)ccc1F [#32]', 'full-length SHP2-E76K oncogenic mutant (Homo sapiens (Human), UniProt Q06124, E76K)', 'IC50', '1 to 20 µM'),
  ('CC(C)NC(=O)c1cccc(-c2ccc(/C=C3\Sc4ccccc4C3=O)o2)c1 [#20]', 'full-length SHP2-E76K oncogenic mutant (Homo sapiens (Human), UniProt Q06124, E76K)', 'IC50', '≥ 100 µM'),
  ('COc1ccc(-c2ccc(/C=C3\Sc4ccccc4C3=O)o2)cc1C(=O)O [#35]', 'full-length SHP2-E76K oncogenic mutant (Homo sapiens (Human), UniProt Q06124, E76K)', 'IC50', '1 to 20 µM'),
  ('O=C1/C(=C/c2ccc(-c3ccc(O)c(C(=O)N4CCNCC4)c3)o2)Sc2ccccc21 [#19]', 'full-length SHP2-E76K oncogenic mutant (Homo sapiens (Human), UniProt Q06124, E76K)', 'IC50', '20 to 100 µM'),
  ('O=C(NCCO)c1cc(-c2ccc(/C=C3\Sc4ccccc4C3=O)o2)ccc1O [#22]', 'full-length SHP2-E76K oncogenic mutant (Homo sapiens (Human), UniProt Q06124, E76K)', 'IC50', '≥ 100 µM'),
  ('O=C(O)c1cccc(-c2ccc(/C=C3\Sc4ccccc4C3=O)o2)c1 [#31]', 'full-length SHP2-E76K oncogenic mutant (Homo sapiens (Human), UniProt Q06124, E76K)', 'IC50', '1 to 20 µM'),
  ('O=C1NC(=O)/C(=C/c2ccc(-c3cccc(C(=O)Nc4ccccc4)c3)o2)S1 [#39]', 'full-length SHP2-E76K oncogenic mutant (Homo sapiens (Human), UniProt Q06124, E76K)', 'IC50', '20 to 100 µM'),
  ('O=C1CCCC/C1=C\c1ccc(-c2ccc(O)c(C(=O)O)c2)o1 [#14]', 'full-length SHP2-E76K oncogenic mutant (Homo sapiens (Human), UniProt Q06124, E76K)', 'IC50', '20 to 100 µM'),
  ('O=C1CCC/C1=C\c1ccc(-c2cccc(C(=O)O)c2)o1 [#36]', 'full-length SHP2-E76K oncogenic mutant (Homo sapiens (Human), UniProt Q06124, E76K)', 'IC50', '20 to 100 µM'),
  ('O=C1/C(=C/c2ccc(-c3ccc(O)c(C(=O)O)c3)o2)CCC/C1=C\c1ccc(-c2ccc(O)c(C(=O)O)c2)o1 [#40]', 'full-length SHP2-E76K oncogenic mutant (Homo sapiens (Human), UniProt Q06124, E76K)', 'IC50', '≤ 1 µM');
